Reported activity change, negative = inhibition values for a set of compounds
- experimental details: NFAT Signaling Pathway (AID 444);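 also: carbachol stimulus at about its EC50 of 1 µM final; % is scaled to controls: 0 for no effect and ±100 for the full control effect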
- measurement conditions: Jurkat NFAT-bla M1, carbachol, beta-lactamase ratio, 5 h; at 7.69 µM (top of the series) unless noted
Inconclusive results are not listed. The source made the active and inactive calls. Calls follow the shape of the dose curve; as a rule, active = well fitted curve in either direction with a large enough effect (not every such curve was filed as active); inconclusive = small, poorly fitted or top-dose-only effect, or another doubt; inactive = flat fitted curve, though single readings scatter.

{"compound": "Cc1ccccc1-c1ccc2ncnc(N(C)Cc3ccco3)c2c1", "activity change, negative = inhibition": "-28.4% (inactive)"}
{"compound": "COc1ccc(CNc2ncncc2-c2ccc(C(=O)N(C)C)cc2)c(OC)c1", "activity change, negative = inhibition": "18.9% (inactive)"}
{"compound": "COCCn1c(=O)c(C)nc2cnc(N3CCOCC3)nc21", "activity change, negative = inhibition": "-1.73% (inactive)"}
{"compound": "O=S(=O)(c1ccccc1)N1CCC[C@@]2(CCN(C(c3ccccc3)c3ccccc3)C2)C1", "activity change, negative = inhibition": "-29.6% (inactive)"}
{"compound": "CS(=O)(=O)Nc1cccc(-c2cncnc2NCc2cccnc2)c1", "activity change, negative = inhibition": "-3.98% (inactive)"}
{"compound": "COc1ccc2c(c1OC)C(=O)OC2C1c2c(cc3c(c2OC)OCO3)CCN1C (configuration not stated)", "activity change, negative = inhibition": "-3.27% [at 17.2 µM] (inactive)"}
{"compound": "NC(=O)OC[C@H](O)COc1ccc(Cl)cc1", "activity change, negative = inhibition": "-9.21% [at 17.2 µM] (inactive)"}
{"compound": "CN(C)C(=O)c1ccc(-c2nc(NCc3cccnc3)c3ccccc3n2)cc1", "activity change, negative = inhibition": "9.73% (inactive)"}
{"compound": "COc1ccc(NC(=O)N2CC3(CCN(C(=O)c4ccncc4)CC3)C2)cc1", "activity change, negative = inhibition": "10.9% (inactive)"}
{"compound": "COc1cccc(Nc2ncc3nc(-c4cccs4)c(=O)n(-c4ccccc4)c3n2)c1", "activity change, negative = inhibition": "-15.6% (inactive)"}
{"compound": "CNc1nc(-c2ccc(C(=O)N(C)C)cc2)nc2ccccc12", "activity change, negative = inhibition": "23.4% (inactive)"}
{"compound": "CNc1ccnc(-c2ccccc2C)n1", "activity change, negative = inhibition": "13% (inactive)"}
{"compound": "CC(=O)Oc1ccccc1C(=O)Oc1ccccc1C(=O)O", "activity change, negative = inhibition": "3.91% [at 17.2 µM] (inactive)"}
{"compound": "CN(C)C(=O)c1ccc(-c2nc(NCc3ccccc3)c3ccccc3n2)cc1", "activity change, negative = inhibition": "16% (inactive)"}
{"compound": "c1ccc2c(N3CCNCC3)nc(-c3ccoc3)nc2c1", "activity change, negative = inhibition": "-11.1% (inactive)"}
{"compound": "CN(C)Cc1ccccc1-c1nc(N(C)Cc2ccco2)c2ccccc2n1", "activity change, negative = inhibition": "-18.4% (inactive)"}
{"compound": "CC(C)NC(=O)N1CC[C@@]2(CCCN(C(=O)c3ccncc3)C2)C1", "activity change, negative = inhibition": "16.9% (inactive)"}
{"compound": "FC(F)(F)c1ccccc1-c1cncnc1NCc1ccccc1", "activity change, negative = inhibition": "-25.7% (inactive)"}
{"compound": "Cc1cccc(CNc2cc(-c3cccnc3)ncn2)c1", "activity change, negative = inhibition": "-0.57% (inactive)"}
{"compound": "COc1ccc(-c2nc3cnc(N4CCOCC4)nc3n(CCC#N)c2=O)cc1", "activity change, negative = inhibition": "2.6% (inactive)"}
{"compound": "Cc1cnc(CNc2ccnc(-c3cccc(NS(C)(=O)=O)c3)n2)cn1", "activity change, negative = inhibition": "13.5% (inactive)"}
{"compound": "COc1ccc(CNc2ccnc(-c3ccc(N(C)C)cc3)n2)c(OC)c1", "activity change, negative = inhibition": "-3.37% (inactive)"}
{"compound": "O=c1c(-c2cc(F)cc(F)c2)nc2cncnc2n1Cc1ccccc1Cl", "activity change, negative = inhibition": "-19.2% (inactive)"}
{"compound": "O=C(c1cc(C(F)(F)F)cc(C(F)(F)F)c1)N1CCC2(CC1)CCN(c1ncccn1)CC2", "activity change, negative = inhibition": "28.8% (inactive)"}
{"compound": "Cc1ccccc1-c1cncnc1N1CCNCC1", "activity change, negative = inhibition": "10.1% (inactive)"}
{"compound": "COc1ccc2[nH]cc(CCNc3ncnc4ccc(-c5ccc6c(c5)OCO6)cc34)c2c1", "activity change, negative = inhibition": "-23.8% (inactive)"}
{"compound": "O=c1c(-c2ccc(F)cc2)nc2cnc(Oc3cccc(Cl)c3)nc2n1C[C@H]1CCCO1", "activity change, negative = inhibition": "-18.3% (inactive)"}
{"compound": "COc1ccccc1CNc1cc(-c2ccccc2C)ncn1", "activity change, negative = inhibition": "-18.6% (inactive)"}
{"compound": "CC(C)CN1CC2(CCN(C(=O)c3cnccn3)CC2)C1", "activity change, negative = inhibition": "-25.4% (inactive)"}
{"compound": "c1ccc(CNc2cc(-c3ccoc3)ncn2)cc1", "activity change, negative = inhibition": "-2.19% (inactive)"}
{"compound": "Cn1cc(-c2nc3cncnc3n(CCN)c2=O)c2ccccc21", "activity change, negative = inhibition": "3.03% (inactive)"}
{"compound": "COCCn1c(=O)c(-c2ccc(F)cc2)nc2cncnc21", "activity change, negative = inhibition": "1.81% (inactive)"}
{"compound": "COCC(=O)N1CCC2(CC1)CN(c1ccc(-c3ccccc3)cc1)C2", "activity change, negative = inhibition": "14.1% (inactive)"}
{"compound": "CC(C)NC(=O)N1CC[C@@]2(CCCN(C(=O)c3ccco3)C2)C1", "activity change, negative = inhibition": "5.58% (inactive)"}
{"compound": "O=C(c1ccncc1)N1CCC2(CCCN(c3ccccc3)C2)CC1", "activity change, negative = inhibition": "3.61% (inactive)"}
{"compound": "COc1ccccc1CN1CCC2(CC1)CCN(S(C)(=O)=O)CC2", "activity change, negative = inhibition": "-27.6% (inactive)"}
{"compound": "O=c1c(-c2cccc(Cl)c2)nc2cncnc2n1-c1ccccc1", "activity change, negative = inhibition": "9.76% (inactive)"}
{"compound": "COCCn1c(=O)c(-c2cc(F)cc(F)c2)nc2cncnc21", "activity change, negative = inhibition": "1.95% (inactive)"}
{"compound": "O=C(Nc1cccc(F)c1)N1CCC2(CC1)CCN(C(=O)c1ccncc1)CC2", "activity change, negative = inhibition": "-6.93% (inactive)"}
{"compound": "Fc1ccc(Nc2ncnc3ccc(-c4ccoc4)cc23)cc1", "activity change, negative = inhibition": "10.4% (inactive)"}
{"compound": "COc1ccc(CNc2ncnc3ccc(-c4ccc(C(=O)N(C)C)cc4)cc23)c(OC)c1", "activity change, negative = inhibition": "28.3% (inactive)"}
{"compound": "COc1ncc2ncc(=O)n(Cc3ccc(F)cc3)c2n1", "activity change, negative = inhibition": "-5.96% (inactive)"}
